Assay: log P determination by HPLC on reverse-phase column (EEC directive 79/831 Annex V.A8)
Format: physicochemical
Conditions: reverse-phase C18 HPLC column, acidic range (pH 2.3), 0.1% aqueous phosphoric acid/acetonitrile, 43° C.
measure: chromatographic logP

[a] N#CCNC(=O)c1cnncc1C(F)(F)F [Example 1]
[b] COC(=O)c1cnncc1C(F)(F)F
Qu. Response body: label of entry with the larger chromatographic logP; valid values a , b . Indicate which entry you chose by stating its label.
Ans. b
(b: 1.68, a: 0.6)

The measured values listed here are drawn from patent US20080214552A1.
